src = the supplement of paper PMC9233669

Tested on: biotinyl-Ile-oxazolone
Assay: self-aminoacylation, catalytic enhancement (BIO) (fold over background); higher = more active; k-Seq, kA / k0A0; sequences stand for … in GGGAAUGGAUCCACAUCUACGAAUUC…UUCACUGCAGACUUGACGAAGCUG
Fewer inactive variants are shown than the library holds.
// map self-aminoacylation to label using lower range: < 1; middle range: ≥ 1 and < 2; upper range: ≥ 2

- sequence: "AAGUUUGCUAAUGGUCGAAAG [Fam3.1 aminoacylation ribozyme variant]"
  class: "lower range"

Request: Categorize the following entry: CCACACUUCAAGCAUUUGGUC [Fam1B.1 aminoacylation ribozyme variant]
Response: lower range

====

Tested on: biotinyl-Phe-oxazolone
Test: self-aminoacylation, catalytic enhancement (BFO) (fold over background); higher = more active; k-Seq, kA / k0A0; sequences stand for … in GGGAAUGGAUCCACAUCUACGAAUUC…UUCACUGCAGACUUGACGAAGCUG
Variants at the floor of the assay were thinned out.
So basically every entry gets a class from its self-aminoacylation, ranges being LOW (below 2), MID (2 to below 20), HIGH (20 or more)

- sequence: "CUACAUCAAACAAUCGGUCUU [Fam1A.1 aminoacylation ribozyme variant]"
  class: "LOW"
- sequence: "AUUACCCUGGUCAUGAAGUGA [Fam2.1 aminoacylation ribozyme variant]"
  class: "HIGH"
- sequence: "AUUACCCCGGUCAGCGAGUGA [Fam2.1 aminoacylation ribozyme variant]"
  class: "HIGH"
- sequence: "AUUAACCUGGUAAUCGAGUGA [Fam2.1 aminoacylation ribozyme variant]"
  class: "HIGH"
- sequence: "ACGUUUGCUUAUAGUCGCAAG [Fam3.1 aminoacylation ribozyme variant]"
  class: "LOW"

Request: The entry to classify is AAUUUUGCUAAUAGUCGCAAU [Fam3.1 aminoacylation ribozyme variant] ; which class holds it?
Response: MID

Request: Assign a bin to AUUCGCCUAGGUCUUCGGGUG [Fam2.2 aminoacylation ribozyme variant]
Response: HIGH

====

Tested on: biotinyl-Leu-oxazolone
Assay: self-aminoacylation, catalytic enhancement (BLO) (fold over background); higher = more active; k-Seq, kA / k0A0; sequences stand for … in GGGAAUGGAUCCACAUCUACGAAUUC…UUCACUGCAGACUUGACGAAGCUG
Variants at the floor of the assay were thinned out.
Label fulfilled when self-aminoacylation >= 3; otherwise not fulfilled.

- sequence: "AUUAUCCUGGGCAUCGAGUGA [Fam2.1 aminoacylation ribozyme variant]"
  class: "fulfilled"
- sequence: "AAGUUUGCUAAUAGUCCGAAG [Fam3.1 aminoacylation ribozyme variant]"
  class: "not fulfilled"
- sequence: "UCACUUCAAACAAUCGGUCUG [Fam1A.1 aminoacylation ribozyme variant]"
  class: "not fulfilled"

Request: Hi team, for AUUACCCUGGUCAACGGGUGA [Fam2.1 aminoacylation ribozyme variant] , is the recorded self-aminoacylation at or above 3?
Response: fulfilled

Request: Threshold query (self-aminoacylation >= 3) on AUUCACCUAGGUCAUGGGGUG [Fam2.2 aminoacylation ribozyme variant]
Response: fulfilled

Request: Answer whether self-aminoacylation of AUUACGCUGGUCAUUGAGUGA [Fam2.1 aminoacylation ribozyme variant] is greater than or equal to 3.
Response: fulfilled

Request: Can AAGUUUGCAAAUAGUAGCAAG [Fam3.1 aminoacylation ribozyme variant] be said to have self-aminoacylation at or above 3?
Response: not fulfilled

Request: Please tell me: is the sequence AACUUCGCUAAUAGUCGCAAG [Fam3.1 aminoacylation ribozyme variant] at or over 3 in terms of self-aminoacylation?
Response: fulfilled

Request: Reported self-aminoacylation reaches at least 3 for AUUCACCUAGGCCAUCGGGCG [Fam2.2 aminoacylation ribozyme variant] ?
Response: fulfilled

====

System: biotinyl-Val-oxazolone
Experiment: self-aminoacylation, catalytic enhancement (BVO) (fold over background); higher = more active; k-Seq, kA / k0A0; sequences stand for … in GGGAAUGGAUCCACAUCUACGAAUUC…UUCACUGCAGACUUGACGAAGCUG
Fewer inactive variants are shown than the library holds.
quantity.name: self-aminoacylation

- sequence: "AUUCACCUACGCCAUCGGGUG [Fam2.2 aminoacylation ribozyme variant]"
  result: 2.11
- sequence: "CUACUUCAUACAAUCUGUCUG [Fam1A.1 aminoacylation ribozyme variant]"
  result: 0.682
- sequence: "CUACUUCAAACUAUUGGUCUG [Fam1A.1 aminoacylation ribozyme variant]"
  result: 0.869
- sequence: "AUUCACCUAGGUCAUGAGGUG [Fam2.2 aminoacylation ribozyme variant]"
  result: 1.81
- sequence: "AUUCACCUAGGUCAGGGGGUG [Fam2.2 aminoacylation ribozyme variant]"
  result: 1.8
- sequence: "AUACACCUAGGUCAUCGGGCG [Fam2.2 aminoacylation ribozyme variant]"
  result: 2.18

Recorded result, CUAGUUCAAACAAUCGCUCUG [Fam1A.1 aminoacylation ribozyme variant] , self-aminoacylation: 0.934

get_value(item= CUACAUUAAACAAUCGGUCUG [Fam1A.1 aminoacylation ribozyme variant] , readout=self-aminoacylation) returns 0.819

Memo: AUUACCCUGGUCAACGAGUGA [Fam2.1 aminoacylation ribozyme variant] , reported self-aminoacylation: 3.6

Reported self-aminoacylation for AAGUUUGCUAAUAGACGCACG [Fam3.1 aminoacylation ribozyme variant] was 0.528

====

Test system: biotinyl-Phe-oxazolone
Assay: self-aminoacylation, catalytic enhancement (BFO) (fold over background); higher = more active; k-Seq, kA / k0A0; sequences stand for … in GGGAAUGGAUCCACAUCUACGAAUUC…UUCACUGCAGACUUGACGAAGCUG
This sample holds only a part of the variants without activity.
Classify by measured self-aminoacylation: rule met if it is equal to or exceeds 4, rule not met if it is smaller.

Examples from the recorded data:
- sequence: "CGACACUUCAAGCAAUCGGCC [Fam1B.1 aminoacylation ribozyme variant]"
  class: "rule not met"
- sequence: "AUUCAGCUAGGCCAUCGGGUG [Fam2.2 aminoacylation ribozyme variant]"
  class: "rule met"
- sequence: "AUUACGCUGGUAAUCGAGUGA [Fam2.1 aminoacylation ribozyme variant]"
  class: "rule met"
- sequence: "UUUACCCUGGUCAUCUAGUGA [Fam2.1 aminoacylation ribozyme variant]"
  class: "rule met"
- sequence: "AUUACCGAGGUCAUCGAGUGA [Fam2.1 aminoacylation ribozyme variant]"
  class: "rule met"

Request: Confirm if self-aminoacylation reported for the sequence CUACUUCGAACAACCGGUCUG [Fam1A.1 aminoacylation ribozyme variant] is 4 or above.
Response: rule not met

Request: Please tell me: is the sequence AUUCAACUUGGUCAUCGGGUG [Fam2.2 aminoacylation ribozyme variant] at or over 4 in terms of self-aminoacylation?
Response: rule met

====

System: biotinyl-Ile-oxazolone
Test: self-aminoacylation, catalytic enhancement (BIO) (fold over background); higher = more active; k-Seq, kA / k0A0; sequences stand for … in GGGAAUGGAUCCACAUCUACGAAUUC…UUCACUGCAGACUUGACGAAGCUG
Variants at the floor of the assay were thinned out.
List of self-aminoacylation values.
API note: the answer field is a bare number with no unit suffix.

// known answers, use as guide
- sequence: "AUUACCCUGGGCCUCGAGUGA [Fam2.1 aminoacylation ribozyme variant]"
  self-aminoacylation: 2.41
- sequence: "AAGUUUGCUAAUAGUCACAAA [Fam3.1 aminoacylation ribozyme variant]"
  self-aminoacylation: 1.21
- sequence: "CCACACUUCAAGUAAUCCGUC [Fam1B.1 aminoacylation ribozyme variant]"
  self-aminoacylation: 1.06
- sequence: "CUUCACCGAGGUCAUCGGGUG [Fam2.2 aminoacylation ribozyme variant]"
  self-aminoacylation: 3.01

Lab note: measured self-aminoacylation of AUUUCCUUGGUCAUCGAGUGA [Fam2.1 aminoacylation ribozyme variant] was 4.35

The recorded self-aminoacylation for entry CCACACUUCAAGCAUUCGGCC [Fam1B.1 aminoacylation ribozyme variant] equals 1.84

Entry under test: AAGUUUGCUAUUAGUCCCAAG [Fam3.1 aminoacylation ribozyme variant] . Its self-aminoacylation was 0.989

Value of self-aminoacylation reported for the sequence AUCACCCUGGUCAUCGAGUAA [Fam2.1 aminoacylation ribozyme variant] is 2

Reported self-aminoacylation ( AUUACCCUGGUCAUCUAGUGA [Fam2.1 aminoacylation ribozyme variant] ) = 4.51

====

System: biotinyl-Leu-oxazolone
Test: self-aminoacylation, catalytic enhancement (BLO) (fold over background); higher = more active; k-Seq, kA / k0A0; sequences stand for … in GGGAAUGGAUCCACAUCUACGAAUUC…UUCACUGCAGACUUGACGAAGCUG
Fewer inactive variants are shown than the library holds.
quantity.name: self-aminoacylation
# print the numeric value only

For reference, reported self-aminoacylation for AGUACCCUGGUCAUUGAGUGA [Fam2.1 aminoacylation ribozyme variant] stands at 7.4

Lookup result for GUUCACCUAGGUCAUUGGGUG [Fam2.2 aminoacylation ribozyme variant] ; measured self-aminoacylation: 2.83

Recorded self-aminoacylation (sequence AUUACCCUAGUCAUAGAGUGA [Fam2.1 aminoacylation ribozyme variant] ): 7.72

Looking up AUGCACCUAGGUCAUCGUGUG [Fam2.2 aminoacylation ribozyme variant] , I see its self-aminoacylation listed as 0.934

Kindly note the recorded self-aminoacylation for CUACAUCAAACACUCGGUCUG [Fam1A.1 aminoacylation ribozyme variant] , which is 0.978
